# credit: the nanobody polyreactivity screen of Harvey et al. (2022)

Experiment: yeast display, Sf9 membrane polyspecificity reagent, FACS + sequencing; frameworks hold sequencing errors
property: polyreactivity (PSR sort gate)

# annotated cases, reported polyreactivity (PSR sort gate) shown
QVQLVESGGGLVQAGGSLRLSCAASGRIFDYYAMGWYRQAPGKERELVAGITSDGDITYYADSVKGRFTISRDNAKNTVYLQMNSLKPEDTAVYYCAADSPHPVRYDYWGQGTQVTVSS | low polyreactivity
QVQLVESGGGLVQAGWSLRLSCAASGRTFTHAMGWYRQAPGKERELVADISSGGSPNYADSVKGRFTISRDNAKNSVYLQMNSLKREDTAVSYCAAVSGSLYGYSVDYWGQGTQVTGSS | low polyreactivity
QVQLVDSGGGLVQAGGSLRLSCAASGSTIPIYAMVWYRQAPGKERELVARITWSGGSTYYADSVKGRFTISRDNAKNTVYLQMNSLKPEDTAVYYCAAVVITTPYDRYYYWGQGTQVTVSS | high polyreactivity
QVQLVESAGGGVQAGGSLRLSCPASGIIFVPNTMGWYRQAPGKEREFVASISRRGGNTNYADSVKGRFTISRDNAKNTVYLQMNSLKPEDTAVYYCAKYSSSEGKYDYWGQGTQVTVSS | high polyreactivity
QVQLVESGGGLVQAGGSLRLSCAASGSIFSYYAMGWYRQAPGKERELVAAISYSGSDTYYADSVKGRFTISRDNAKNTVYLQMNSLKPEDTAVYYCAAEDPSYSYDYWGQGTQVTVSS | low polyreactivity
QVQLVESGGGLVQAGGSLRLSCAASGRIFTGNAMGWYRQAPGKERELVAAITGRGGNTYYADSGKGRFTISRDNAKNTVYLLMNSLKPEDTAGYYGAKVFFHTPIVPEYDYWGQGTHVTVSS | low polyreactivity

# get_value(readout='polyreactivity (PSR sort gate)', item= "QVQLVESGGGLVQAGGSLRLSCAASGRIFLNYDMGWYTQAPGKERELVADISISGSTDYADSVKWRFTISRDNAKKTVYLQMNCLKPEDTAVYYCATSFYVSDYYVPYEMGYWGQGTQVTVSS" )
low polyreactivity

# get_value(readout='polyreactivity (PSR sort gate)', item= "QVQLVESGARLVQAGGSLRLSCAASGRTVAYNAMGWSREAAGKEREVDPAISRRGGSTYYADSVKGRFTISRDNAKNTVNLQMNSLKPEDTAVYYCASRRLRRASSLDYWGQGSQVTVSS" )
high polyreactivity

# get_value(readout='polyreactivity (PSR sort gate)', item= "QVQLVESGGGLVQAGGSLRISCAASGITFPWYAMGWYRQAPGKERELVAAINRAGNTNYADSVKGRFTISRDNAKNTVYLQMNSLKPEDTSVYYCAARWRYKYTLGYWGQGTQVTVSS" )
high polyreactivity

# get_value(readout='polyreactivity (PSR sort gate)', item= "QVQLVESGGGLVQAGGSLRLSCAASGIIFGSYAMGWYRQAPGKERELVAAISRGTSTYYAVSVKGRFTISRDNAKNTVYLQMNSLKPEDSAVYYCAATRQQYGPHSRFVYVNYYYCGQGTQVTVSS" )
low polyreactivity

# get_value(readout='polyreactivity (PSR sort gate)', item= "QVQLVESGGGLVQAGGSLRLSCAASGYIINYNAMGWYRQAPGKERELVAAISSRGGSTYYADSVKGRFTISRDNAKNTVYLQMNSLKPEDTAVYYCNARYYSWYQRYDRRRGYDYWGQGTQVTVSS" )
low polyreactivity

# get_value(readout='polyreactivity (PSR sort gate)', item= "QVQLVESGGGLVQAGGSLRLSCAASGITFSGNAMGWYRQAPGKEREFVAAITFSGGRTYYADSVKGRFTISRDNAKNTVYLQMNSLKPEDTAVYFCAAETPRGRWLGDYWGQGTQVTVSA" )
low polyreactivity
